- target-entity: Carbonic anhydrase 4 (Bos taurus) (UniProt Q95323)
- Sequence (Q95323 whole entry): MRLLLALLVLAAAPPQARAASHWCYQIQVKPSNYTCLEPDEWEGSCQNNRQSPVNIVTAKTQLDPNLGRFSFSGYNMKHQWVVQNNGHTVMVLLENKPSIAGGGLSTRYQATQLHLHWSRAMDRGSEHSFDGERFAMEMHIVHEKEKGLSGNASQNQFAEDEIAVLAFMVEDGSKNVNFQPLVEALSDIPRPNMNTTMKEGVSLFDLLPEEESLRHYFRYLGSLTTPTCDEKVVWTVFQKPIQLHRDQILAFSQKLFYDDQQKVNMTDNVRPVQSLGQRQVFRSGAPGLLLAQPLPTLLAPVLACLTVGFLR
- procedure-details: In vitro carbonic anhydrase IV activation in bovine lung microsomes.
- particulars: Microsome
Classify: 1 when KA is strictly less than 1 µM; -1 when KA is not.

INPUT: Strictly below 1 µM in KA? Cc1ccccc1S(=O)(=O)NC(=O)N[C@H](C(=O)NCCC(=O)N[C@@H](Cc1c[nH]cn1)C(=O)O)C(C)C
OUTPUT: -1

INPUT: Does this compound meet the criterion KA < 1 µM? O=C(CCNC(=O)[C@H]1CCCCN1C(=O)NS(=O)(=O)c1ccc(F)cc1)NC(Cc1c[nH]cn1)C(=O)O (stereo not given in full)
OUTPUT: -1

INPUT: Hello, I'm reviewing records and need to know if KA of NCCC(=O)N[C@@H](Cc1c[nH]cn1)C(=O)O is below 1 µM. Could you check?
OUTPUT: -1

INPUT: Dear colleague, could you confirm whether KA of Cc1ccccc1S(=O)(=O)NC(=O)NCC(=O)NCC(=O)NCCC(=O)N[C@@H](Cc1c[nH]cn1)C(=O)O falls below 1 µM? Thanks.
OUTPUT: -1

INPUT: Criterion: KA strictly below 1 µM. Is it met by Cc1ccccc1S(=O)(=O)NC(=O)N[C@@H](Cc1ccccc1)C(=O)NCCC(=O)N[C@@H](Cc1c[nH]cn1)C(=O)O ?
OUTPUT: -1

INPUT: Regarding N=C(N)NCCC[C@H](NC(=O)NS(=O)(=O)c1ccc(F)cc1)C(=O)NCCC(=O)N[C@@H](Cc1c[nH]cn1)C(=O)O , kindly confirm whether its KA is beneath 1 µM.
OUTPUT: 1

INPUT: Problem: For the compound NC(=O)CC[C@H](NC(=O)NS(=O)(=O)c1ccc(F)cc1)C(=O)NCCC(=O)N[C@@H](Cc1c[nH]cn1)C(=O)O , is KA under 1 µM?
OUTPUT: -1

INPUT: Identify whether the compound O=C(CCNC(=O)[C@H](Cc1c[nH]cn1)NC(=O)CNC(=O)NS(=O)(=O)c1ccc(F)cc1)N[C@@H](Cc1c[nH]cn1)C(=O)O records KA below 1 µM.
OUTPUT: 1

INPUT: Check if KA falls below 1 µM for Cc1ccccc1S(=O)(=O)NC(=O)N[C@@H](CC(N)=O)C(=O)NCCC(=O)N[C@@H](Cc1c[nH]cn1)C(=O)O .
OUTPUT: -1

INPUT: Confirm or reject: KA of NC(=O)C[C@H](NC(=O)NS(=O)(=O)c1ccc(F)cc1)C(=O)NCCC(=O)N[C@@H](Cc1c[nH]cn1)C(=O)O lies strictly below 1 µM
OUTPUT: -1

INPUT: Find out if reported KA for O=C(CCNC(=O)[C@H](Cc1ccccc1)NC(=O)NS(=O)(=O)c1ccc(F)cc1)N[C@@H](Cc1c[nH]cn1)C(=O)O is less than 1 µM
OUTPUT: -1

INPUT: Strictly below 1 µM: is that where KA of N[C@@H](Cc1c[nH]cn1)C(=O)O sits?
OUTPUT: -1

INPUT: Consider O=C(CCNC(=O)[C@@H]1CCCN1C(=O)[C@H](Cc1ccccc1)NC(=O)NS(=O)(=O)c1ccc(F)cc1)N[C@@H](Cc1c[nH]cn1)C(=O)O . Does its KA lie strictly below 1 µM?
OUTPUT: 1

INPUT: For this compound, is KA lower than 1 µM? C[C@H](NC(=O)NS(=O)(=O)c1ccc(F)cc1)C(=O)NCCC(=O)NC(Cc1c[nH]cn1)C(=O)O (stereo not given in full)
OUTPUT: -1

INPUT: Is the reported KA for O=C(CNC(=O)CNC(=O)NS(=O)(=O)c1ccc(F)cc1)NCCC(=O)N[C@@H](Cc1c[nH]cn1)C(=O)O strictly below 1 µM?
OUTPUT: -1

INPUT: Strictly below 1 µM in KA? Cc1ccccc1S(=O)(=O)NC(=O)N1CCCC(C(=O)NCCC(=O)NC(Cc2c[nH]cn2)C(=O)O)C1 (stereo not given)
OUTPUT: -1

INPUT: Answer whether the compound Cc1ccccc1S(=O)(=O)NC(=O)N[C@H](C(=O)NCCC(=O)N[C@@H](Cc1c[nH]cn1)C(=O)O)c1ccccc1 has KA strictly less than 1 µM
OUTPUT: -1

INPUT: Say whether its KA is strictly beneath 1 µM. Entry: O=C(CNC(=O)C1CCCN1C(=O)NS(=O)(=O)c1ccc(F)cc1)NCCC(=O)NC(Cc1c[nH]cn1)C(=O)O (stereo not given)
OUTPUT: 1

INPUT: Consider NCCCC[C@H](NC(=O)NS(=O)(=O)c1ccc(F)cc1)C(=O)NCCC(=O)N[C@@H](Cc1c[nH]cn1)C(=O)O . Does its KA lie strictly below 1 µM?
OUTPUT: 1

INPUT: Does the reported KA of CC(C)C[C@H](NC(=O)NS(=O)(=O)c1ccc(F)cc1)C(=O)NCCC(=O)N[C@@H](Cc1c[nH]cn1)C(=O)O stay below 1 µM?
OUTPUT: -1

INPUT: Answer whether the compound O=C(CCNC(=O)C1CCN(C(=O)NS(=O)(=O)c2ccc(F)cc2)CC1)NC(Cc1c[nH]cn1)C(=O)O (stereo not given) has KA strictly less than 1 µM
OUTPUT: -1

INPUT: Hello, I'm reviewing records and need to know if KA of Cc1ccccc1S(=O)(=O)NC(=O)N[C@@H](CCC(N)=O)C(=O)NCCC(=O)N[C@@H](Cc1c[nH]cn1)C(=O)O is below 1 µM. Could you check?
OUTPUT: -1

INPUT: Consider Cc1ccccc1S(=O)(=O)NC(=O)NCC(=O)NCCC(=O)N[C@@H](Cc1c[nH]cn1)C(=O)O . Does its KA lie strictly below 1 µM?
OUTPUT: -1

INPUT: Find out if reported KA for O=C(CCNC(=O)[C@H](Cc1c[nH]cn1)NC(=O)NS(=O)(=O)c1ccc(F)cc1)N[C@@H](Cc1c[nH]cn1)C(=O)O is less than 1 µM
OUTPUT: 1

INPUT: Hello, is KA of the following compound strictly smaller than 1 µM? O=C(CCNC(=O)[C@H](Cc1c[nH]cn1)NC(=O)CCNC(=O)NS(=O)(=O)c1ccc(F)cc1)N[C@@H](Cc1c[nH]cn1)C(=O)O
OUTPUT: 1

INPUT: Here's an entry: O=C(CCNC(=O)NS(=O)(=O)c1ccc(F)cc1)NCCC(=O)N[C@@H](Cc1c[nH]cn1)C(=O)O . Is its KA below 1 µM?
OUTPUT: -1

INPUT: Is it true that KA reported for Cc1ccccc1S(=O)(=O)NC(=O)N[C@@H](Cc1ccccc1)C(=O)N1CCC[C@H]1C(=O)NCCC(=O)N[C@@H](Cc1c[nH]cn1)C(=O)O is less than 1 µM?
OUTPUT: 1

INPUT: Lab log: compare recorded KA with 1 µM; is it strictly lower for Cc1ccccc1S(=O)(=O)NC(=O)N[C@@H](Cc1c[nH]cn1)C(=O)NCCC(=O)N[C@@H](Cc1c[nH]cn1)C(=O)O ?
OUTPUT: 1

###

- target-entity: Carbonic anhydrase 1 (Homo sapiens) (UniProt P00915)
- Sequence (P00915 2-261 limits assumed): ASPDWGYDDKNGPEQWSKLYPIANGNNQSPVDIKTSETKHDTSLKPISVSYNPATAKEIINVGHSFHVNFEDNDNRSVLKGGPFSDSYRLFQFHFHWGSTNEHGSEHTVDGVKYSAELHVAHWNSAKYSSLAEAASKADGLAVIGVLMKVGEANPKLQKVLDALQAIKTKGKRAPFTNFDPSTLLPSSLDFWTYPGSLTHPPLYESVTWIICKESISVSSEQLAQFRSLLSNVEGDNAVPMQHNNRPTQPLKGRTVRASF
- procedure-details: In vitro carbonic anhydrase activation in human cloned Carbonic anhydrase I (hCA I)
Param threshold (0.1 µM) applies to KA; output y when value >= threshold, n when value < threshold.

INPUT: Hi team, for Cc1ccccc1S(=O)(=O)NC(=O)N1CCCC[C@@H]1C(=O)NCCC(=O)NC(Cc1c[nH]cn1)C(=O)O (stereo partly specified) , is the recorded KA at or above 0.1 µM?
OUTPUT: y

INPUT: # bool: KA of NC(=O)C[C@H](NC(=O)NS(=O)(=O)c1ccc(F)cc1)C(=O)NCCC(=O)N[C@@H](Cc1c[nH]cn1)C(=O)O >= 0.1 µM
OUTPUT: y

INPUT: Could you verify whether the entry O=C(CCNC(=O)[C@H]1CCCCN1C(=O)NS(=O)(=O)c1ccc(F)cc1)NC(Cc1c[nH]cn1)C(=O)O (stereo partly specified) shows KA of no less than 0.1 µM?
OUTPUT: y

INPUT: In plain terms: is recorded KA at least 0.1 µM for Cc1ccccc1S(=O)(=O)NC(=O)NCC(=O)NCCC(=O)N[C@@H](Cc1c[nH]cn1)C(=O)O ?
OUTPUT: y

INPUT: Quick check, KA >= 0.1 µM? O=C(CNC(=O)NS(=O)(=O)c1ccc(F)cc1)NCCC(=O)N[C@@H](Cc1c[nH]cn1)C(=O)O
OUTPUT: y

INPUT: Check if KA >= 0.1 µM (inclusive). Item: O=C(CCNC(=O)[C@@H](NC(=O)NS(=O)(=O)c1ccc(F)cc1)c1ccccc1)N[C@@H](Cc1c[nH]cn1)C(=O)O
OUTPUT: n

INPUT: Determine whether this molecule has KA no lower than 0.1 µM: CC[C@H](C)[C@@H](NC(=O)NS(=O)(=O)c1ccc(F)cc1)C(=O)NCCC(=O)NC(Cc1c[nH]cn1)C(=O)O (stereo partly specified)
OUTPUT: y

INPUT: Evaluate O=C(CCNC(=O)[C@@H]1CCCN1C(=O)[C@H](Cc1ccccc1)NC(=O)NS(=O)(=O)c1ccc(F)cc1)N[C@@H](Cc1c[nH]cn1)C(=O)O : KA at minimum 0.1 µM?
OUTPUT: n

INPUT: Hi team, for Cc1ccccc1S(=O)(=O)NC(=O)N1CCC(C(=O)NCCC(=O)NC(Cc2c[nH]cn2)C(=O)O)CC1 (stereo unspecified) , is the recorded KA at or above 0.1 µM?
OUTPUT: y

INPUT: Assess whether reported KA for O=C(CCNC(=O)[C@H](Cc1c[nH]cn1)NC(=O)NS(=O)(=O)c1ccc(F)cc1)N[C@@H](Cc1c[nH]cn1)C(=O)O sits at 0.1 µM or higher.
OUTPUT: n

INPUT: hey, is KA for this one >= 0.1 µM? Cc1ccccc1S(=O)(=O)NC(=O)N[C@@H](CC(C)C)C(=O)NCCC(=O)N[C@@H](Cc1c[nH]cn1)C(=O)O
OUTPUT: y

INPUT: // inclusive: KA at least 0.1 µM? input: Cc1ccccc1S(=O)(=O)NC(=O)NCCCC(=O)NCCC(=O)N[C@@H](Cc1c[nH]cn1)C(=O)O
OUTPUT: y

INPUT: Record Cc1ccccc1S(=O)(=O)NC(=O)N[C@@H](CCC(N)=O)C(=O)NCCC(=O)N[C@@H](Cc1c[nH]cn1)C(=O)O ; criterion: KA no lower than 0.1 µM. Met?
OUTPUT: y

INPUT: Check this molecule for KA at or above 0.1 µM: Cc1ccccc1S(=O)(=O)NC(=O)NCC(=O)N[C@@H](Cc1c[nH]cn1)C(=O)NCCC(=O)N[C@@H](Cc1c[nH]cn1)C(=O)O
OUTPUT: n

INPUT: Does the reported KA for NC(=O)CC[C@H](NC(=O)NS(=O)(=O)c1ccc(F)cc1)C(=O)NCCC(=O)N[C@@H](Cc1c[nH]cn1)C(=O)O fall at or above the 0.1 µM mark?
OUTPUT: y

INPUT: Could you please find out whether Cc1ccccc1S(=O)(=O)NC(=O)N[C@@H](CC(N)=O)C(=O)NCCC(=O)N[C@@H](Cc1c[nH]cn1)C(=O)O has KA that meets 0.1 µM or exceeds it?
OUTPUT: y

INPUT: hey, is KA for this one >= 0.1 µM? Cc1ccccc1S(=O)(=O)NC(=O)N[C@@H](Cc1ccccc1)C(=O)NCCC(=O)N[C@@H](Cc1c[nH]cn1)C(=O)O
OUTPUT: n

INPUT: // inclusive: KA at least 0.1 µM? input: CC(C)C[C@H](NC(=O)NS(=O)(=O)c1ccc(F)cc1)C(=O)NCCC(=O)N[C@@H](Cc1c[nH]cn1)C(=O)O
OUTPUT: y

INPUT: Decide: KA of Cc1ccccc1S(=O)(=O)NC(=O)NCCC(=O)N[C@@H](Cc1c[nH]cn1)C(=O)NCCC(=O)N[C@@H](Cc1c[nH]cn1)C(=O)O >= 0.1 µM?
OUTPUT: n

INPUT: Could you verify whether the entry NCCc1c[nH]cn1 shows KA of no less than 0.1 µM?
OUTPUT: y

INPUT: Given the entry O=C(CCNC(=O)NS(=O)(=O)c1ccc(F)cc1)NCCC(=O)N[C@@H](Cc1c[nH]cn1)C(=O)O , answer whether its KA meets or surpasses 0.1 µM.
OUTPUT: y
